System: KHOS-240S
Test: relative viability vs DMSO control (72 h) (fraction); higher = more viable cells
Details: 0.00051 µM
For each entry below, report its relative viability value.
One number for each entry.

Below, 2 molecules whose answers are already recorded.
CCN1C(=O)N(c2c(F)c(OC)cc(OC)c2F)Cc2cnc3[nH]c(CN4CCOCC4)cc3c21 [Pemigatinib] :: 1.03
CN1CCN(c2ccc(C(=O)Nc3n[nH]c4ccc(Cc5cc(F)cc(F)c5)cc34)c(NC3CCOCC3)c2)CC1 [Entrectinib] :: 1.06

Give relative viability for all molecules that follow.
1. Cc1cc2cc(Oc3ccnc(Nc4cccc(CS(=O)(=O)NCCN(C)C)c4)n3)ccc2[nH]1 [Sulfatinib]
2. COC(=O)[C@@]1(O)C[C@H]2O[C@]1(C)n1c3ccccc3c3c4c(c5c6ccccc6n2c5c31)C(=O)NC4 [K-252a]
3. CC1(C)CC=C(c2nc(C3CC(C)(C)OC(C)(C)C3)ccc2NC(=O)c2nc(C#N)c[nH]2)CC1 [Edicotinib]

Result:
1. 1.02
2. 1.05
3. 1.01

// for each molecule below, give its relative viability
1. CO[C@H]1C[C@@H]2CC[C@@H](C)[C@@](O)(O2)C(=O)C(=O)N2CCCC[C@H]2C(=O)O[C@H]([C@H](C)C[C@@H]2CC[C@@H](OCCO)[C@H](OC)C2)CC(=O)[C@H](C)/C=C(\C)[C@@H](O)[C@@H](OC)C(=O)[C@H](C)C[C@H](C)/C=C/C=C/C=C/1C [Certican]
2. O=c1sn(-c2cccc3ccccc23)c(=O)n1Cc1ccccc1 [Tideglusib]
3. Cc1cccc(-c2nn3c(c2-c2ccnc4ccc(C(N)=O)cc24)CCC3)n1 [Galunisertib]

Result:
1. 1.01
2. 1.07
3. 1.07

Look up relative viability for the entries below, preserving their order.
1. CNC(=O)c1nnc(NC(=O)C2CC2)cc1Nc1cccc(-c2ncn(C)n2)c1OC
2. CC#CC(=O)N1CCC[C@H]1c1nc(-c2ccc(C(=O)Nc3ccccn3)cc2)c2c(N)nccn12 [Acalabrutinib]
3. COc1cc(CCc2cc(NC(=O)c3ccc(N4CC(C)NC(C)C4)cc3)n[nH]2)cc(OC)c1 (stereo unspecified) [AZD-4547]

Result:
1: 1.07; 2: 1.06; 3: 1.07
